Target: von Willebrand factor full length (Homo sapiens, UniProt P04275 SEQ:764-2813)
Test: filter; 50% bound at 100 nM vWF
Details: tags: Calbiochem 681300; label: 5'-32P
recorded metric: Kd (nM)
The reply should be a number in nM, with the unit left off.

Which Kd value belongs to GGCGUGCAGTGCCTTCGGCCGTGCGGTGCCTCCGTCACGCC (ssDNA, 2'-OMe U5, 3'-idT) [ARC1198] ?
0.9
